- System: HCC-2998 colon
- measurement.protocol: NCI-60 one-dose screen, 48 h
- run.conditions: 10 µM unless noted
About 83,000 compounds went through this panel and 20% of them were active in at least one assay; those are over-represented in the sample as a whole. Activity calls are given as the source filed them. The calls were made as follows: active = growth percent below 10; inactive = the rest.
Use one of these outcomes when replying: active, inactive

Study these solved cases before continuing.
[
  {
    "smiles.str": "Oc1ccc(CN2CCC(N3CCOCC3)CC2)c2cccnc12",
    "qualitative.label": "inactive"
  },
  {
    "smiles.str": "COc1cccc(-c2nn(-c3ccccc3)cc2-c2ccnc(NCCCNC(=O)Nc3ccc(Cl)c(Cl)c3)c2)c1",
    "qualitative.label": "active"
  },
  {
    "smiles.str": "Cc1cc(C)c(-c2c(C)cc(C)cc2CBr)c(CBr)c1",
    "qualitative.label": "inactive"
  },
  {
    "smiles.str": "CCN(CC)CCN1C(=O)c2c(c(C)c3c(oc4cc(O)ccc43)c2C)C1=O",
    "qualitative.label": "inactive"
  },
  {
    "smiles.str": "N#Cc1c(N2CCNCC2)nc2sc3cc(Cl)c(Cl)cc3n2c1=N",
    "qualitative.label": "inactive"
  },
  {
    "smiles.str": "COc1ccc(-c2nc3ccc4[nH]ncc4c3c3c2CCCC3)cc1B(O)O",
    "qualitative.label": "inactive"
  },
  {
    "smiles.str": "CCCCCS(=O)(=O)Nc1ccc(C(=O)O)cc1",
    "qualitative.label": "inactive"
  },
  {
    "smiles.str": "Cc1ccc2nc3ccccc3c(NCc3ccccc3)c2c1",
    "qualitative.label": "active"
  },
  {
    "smiles.str": "Cn1cc2c(c1)-c1nc(Nc3ccccc3)ncc1CC2",
    "qualitative.label": "inactive"
  }
]

Please turn your attention to the following entry.
(Q) Can you look up the reported call for `COc1ccc(NC(=O)CSc2nnc(-c3cc(-c4ccc(S(N)(=O)=O)cc4)nc4ccccc34)n2-c2ccccc2)cc1` for me?
(A) inactive

###

- Test system: OVCAR-8 ovarian
- measurement.protocol: NCI-60 one-dose screen, 48 h
- run.conditions: 10 µM unless noted
The panel holds about 83,000 compounds, 20% with a hit somewhere; the sample as a whole holds those more often. Activity calls are given as the source filed them. Rule for the calls: active = growth percent below 10; inactive = the rest.
Use one of these outcomes when replying: active, inactive

Study these solved cases before continuing.
[
  {
    "compound": "O=C(O)CN1C(=O)CCC1=O",
    "measured.on": "OVCAR-8 ovarian",
    "qualitative.label": "inactive"
  },
  {
    "compound": "COc1ccc(C(=O)Nn2c(NCC(=O)N3c4ccccc4Sc4ccccc43)nnc2-c2ccc(O)cc2)cc1",
    "measured.on": "OVCAR-8 ovarian",
    "qualitative.label": "inactive"
  },
  {
    "compound": "COc1ccc(Cl)cc1NC(=O)C(Br)C(Br)C(=O)O (centres undefined)",
    "measured.on": "OVCAR-8 ovarian",
    "qualitative.label": "inactive"
  },
  {
    "compound": "O=C(CCCCCCSc1nc(-c2ccccc2)cc(-c2ccc(Cl)cc2)n1)NO",
    "measured.on": "OVCAR-8 ovarian",
    "qualitative.label": "active"
  },
  {
    "compound": "O=C1/C(=C2/C=Nc3ccccc32)N(O)c2ccccc21",
    "measured.on": "OVCAR-8 ovarian",
    "qualitative.label": "inactive"
  }
]

(Q) Can you look up the reported call for CCCCC1CCCCN1C(=O)OCC (centres undefined) for me?
(A) inactive

(Q) Next entry: Cc1ccc(NS(=O)(=O)c2ccc3c(c2)C2OCCC2C(c2ccc(C(=O)C(C)C)cc2)N3)cc1C (centres undefined)
(A) inactive

(Q) Next entry: `COc1nc2c(c(=O)n1C)CN(c1ccccc1)C(=O)CN2C`
(A) inactive

(Q) Next entry: CCN1C(=O)N(CC)C2Nn3c(s/c(=C\c4ccc(Cl)cc4Cl)c3=O)=NC21 (centres undefined)
(A) inactive

###

- Test system: UACC-257 melanoma
- measurement.protocol: NCI-60 one-dose screen, 48 h (100 = growth as untreated, 0 = no growth, -100 = all killed)
- run.conditions: 10 µM unless noted
Compounds without any hit were thinned out: in the full panel of roughly 83,000, 20% have a hit. Calls of active or inactive are those of the source. Rule for the calls: active = growth percent below 10; inactive = the rest.
endpoint: growth

[
  {
    "molecule": "COc1ccc(-c2cc(-c3cc(OC)c(OC)c(OC)c3)c(C#N)c(N3CCOCC3)n2)cc1O",
    "measured.on": "UACC-257 melanoma",
    "val": "90.3% (inactive)"
  }
]

(Q) For the molecule shown here, `Cc1c(O)cc(-c2cnc(N/N=C\c3ccc(Cl)cc3)s2)c(O)c1C` , give the reported growth.
(A) 91.2% (inactive)

(Q) Next entry: COc1cc(C2CC(=O)Nc3c2c(C)nn3-c2nc3ccccc3[nH]2)c(OC)c(OC)c1OC (stereo unspecified)
(A) 60.6% (inactive)

(Q) Next entry: `Fc1ccc(CNc2c3ccccc3nc3ccccc23)cc1F`
(A) 65.1% (inactive)

(Q) Next entry: `CC(C)(C)n1cc(-c2ccnc(NCCCNS(=O)(=O)c3ccccc3)c2)c(-c2ccccc2)n1`
(A) 77.9% (inactive)

(Q) Next entry: `C=C(C)[C@@H]1CC[C@]2(C(=O)NC3CCCCC3)CC[C@]3(C)[C@H](CC[C@@H]4[C@@]5(C)CCC(=O)C(C)(C)[C@@H]5CC[C@]43C)[C@@H]12`
(A) 94.2% (inactive)

(Q) Next entry: `CCCCCS(=O)(=O)Nc1ccc(C(=O)O)cc1`
(A) 95% (inactive)

###

Property: growth; scope: individual compounds
- System: PC-3 prostate
- measurement.protocol: NCI-60 one-dose screen, 48 h (100 = growth as untreated, 0 = no growth, -100 = all killed)
- run.conditions: 10 µM unless noted
Compounds without any hit were thinned out: in the full panel of roughly 83,000, 20% have a hit.
Number in %, nothing else.

Use the examples below as a reference point.
[
  {
    "compound": "COc1ccc(/C=N/C2=C(C#N)C(c3ccc(OC)cc3)c3ccc4ccccc4c3O2)cc1 (centres undefined)",
    "measured.on": "PC-3 prostate",
    "growth (%)": 70
  },
  {
    "compound": "CCc1ccccc1-n1c(-c2ccc(Cl)cc2)cc(-c2ccc(OC)cc2)c(C#N)c1=O",
    "measured.on": "PC-3 prostate",
    "growth (%)": 84.1
  },
  {
    "compound": "O=c1c2c3c(sc2n2c(-c4cn(-c5ccccc5)nc4-c4ccc(Cl)cc4)nnc2n1Cc1ccccc1)CCCC3",
    "measured.on": "PC-3 prostate",
    "growth (%)": 95.3
  },
  {
    "compound": "Cc1cc(NCc2cc(Nc3ccnc4cc(Cl)ccc34)ccc2F)nc(N2CCOCC2)n1",
    "measured.on": "PC-3 prostate",
    "growth (%)": 37.5
  }
]

(Q) For the compound shown here, `Cc1ccc(NCCN(C)C)c2c(=O)c3ccccc3sc12` , give the reported growth.
(A) 36.2

(Q) Next entry: `Clc1cccc(Cl)c1/C=C/c1cc(/C=C/c2c(Cl)cccc2Cl)[nH]n1`
(A) 30.8

(Q) Next entry: CC1(C)CC(=O)CC2(C1)N=C(N)Nc1nc3ccccc3n12 (centres undefined)
(A) 95.7

###

- System: A549/ATCC NSCLC
- measurement.protocol: NCI-60 one-dose screen, 48 h (100 = growth as untreated, 0 = no growth, -100 = all killed)
- run.conditions: 10 µM unless noted
This is part of a sample that, as a whole, favours compounds with a hit. Of some 83,000 tested, about 20% had one in any assay.
endpoint: growth (%)
Number in %, nothing else.

[
  {
    "compound": "CC(C)(C)C(CCc1ccc(Cl)cc1)N1CCN(C2CCCCC2)CC1 (stereo not drawn)",
    "measured.on": "A549/ATCC NSCLC",
    "quantity.unit": "%",
    "growth": 24.9
  },
  {
    "compound": "NS(=O)(=O)c1cnccc1Sc1ccncc1S(N)(=O)=O",
    "measured.on": "A549/ATCC NSCLC",
    "quantity.unit": "%",
    "growth": 109
  }
]

Alright, here's another compound for you.
(Q) For the compound shown here, `Cc1cc(C)c(-c2c(C)cc(C)cc2CBr)c(CBr)c1` , give the reported growth.
(A) 68.6

###

- System: TK-10 renal
- measurement.protocol: NCI-60 one-dose screen, 48 h
- run.conditions: 10 µM unless noted
About 83,000 compounds went through this panel and 20% of them were active in at least one assay; those are over-represented in the sample as a whole. Active and inactive are the calls of the source. The calls were made as follows: active = growth percent below 10; inactive = the rest.
Use one of these outcomes when replying: active, inactive

[
  {
    "compound": "O=C(Nc1cccc(Oc2nnc(Cl)c3ccccc23)c1)Nc1ccc(Cl)c(C(F)(F)F)c1",
    "qualitative.label": "active"
  },
  {
    "compound": "O=C1NC(=Nc2ccc(Cl)cc2)S/C1=C\\c1cn(-c2ccccc2)nc1-c1ccccc1",
    "qualitative.label": "inactive"
  },
  {
    "compound": "c1ccc2c(c1)nc(CN1CCOCC1)n1cc(N3CCCC3)nc21",
    "qualitative.label": "inactive"
  },
  {
    "compound": "CCCCCCCOc1c(OC)cc(C2CC(=O)Nc3c2c(C)nn3-c2nc3ccccc3[nH]2)cc1OC (stereo unspecified)",
    "qualitative.label": "inactive"
  },
  {
    "compound": "CCOc1ccccc1-c1cc(-c2cccs2)c(C#N)c(=O)[nH]1",
    "qualitative.label": "inactive"
  }
]

Please turn your attention to the following entry.
(Q) Can you look up the reported call for `Cc1ccccc1NC(=O)N/C(N)=N/c1nc(C)c(C)s1` for me?
(A) inactive

Hello, the source for this data is PubChem BioAssay (NCI), in case you need it.
